- test_system: PxGSTσ1 (Plutella xylostella)
- Sequence (Q6F436 entry or part of it): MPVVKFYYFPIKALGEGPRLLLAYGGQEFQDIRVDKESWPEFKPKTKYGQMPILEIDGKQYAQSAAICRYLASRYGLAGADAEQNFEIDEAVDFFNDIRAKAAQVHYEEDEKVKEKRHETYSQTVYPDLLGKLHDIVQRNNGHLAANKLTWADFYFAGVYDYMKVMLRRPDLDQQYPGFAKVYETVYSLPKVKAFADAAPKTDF
- protocol_description: Inhibition of PxGSTσ1 recombinant protein
- Type: biochemical
- measurement_parameters: read-out: 100 μM Inhibition rate %
measured_metric: inhibition at 100 µM (%)
Dear colleague, please return just the value in %, with no unit written.

Previously resolved entries follow.
compound	unit_descriptor	inhibition at 100 µM
COc1ccc(C2(C)NC(=O)N(NC(=O)c3cc(-c4ccccc4)nn3-c3ccccc3)C2=O)cc1 (stereo not shown)	%	52.2
CC1(CCc2ccccc2)NC(=O)N(NC(=O)c2cc(-c3ccccc3)nn2-c2ccccc2)C1=O (stereo not shown)	%	42.5
O=C(NNC(=O)c1cc(-c2ccccc2)nn1-c1ccccc1)c1ccc(=O)[nH]n1	%	25.1

From here, focus on the item given below.
Exercise: Value lookup for inhibition at 100 µM; key = COc1ccccc1CC(=O)NNC(=O)c1cc(-c2ccccc2)nn1-c1ccccc1
Solution: 29.4
